# System: OVCAR-5 ovarian
# Experiment summary: NCI tumour cell line growth inhibition, 48 h
Where a SMILES comes first, the peptide text is derived from it. [ ]: non-standard residue; d: D form. The star is where a group is joined. ξ: configuration not given here. ξPhe(4-NO2) = NC(Cc1ccc([N+](=O)[O-])cc1)C(=O)O; Boc = CC(C)(C)OC(=O)*
Please use T whenever TGI is not below 40 µM, and F whenever it is.

>>> assigned_label("COc1ccc(/C=C2\\CCc3ccccc3C2=O)cc1OC")
"T"
>>> assigned_label("Cc1nn(C(=O)c2ccncc2)c2c1C(c1ccc([N+](=O)[O-])cc1)SC(N)=N2 (configuration not stated)")
"T"
>>> assigned_label("CCN(CC)/[N+]([O-])=N/OCC(C)O (configuration not stated)")
"T"
>>> assigned_label("C=CC(C)(C)n1cc(C2=C(O)C(=O)C(c3c(CC=C(C)C)[nH]c4ccccc34)=C(O)C2=O)c2ccccc21")
"F"
>>> assigned_label("COc1ccc(Br)c(C=Nc2cccc3cc(OC)c(OC)cc23)c1")
"T"
>>> assigned_label("COc1ccc2c(c1)C=C(C(C)(C)C)NS2(=O)=O")
"T"
>>> assigned_label("CCNC(=O)CNC(=O)C(Cc1ccc([N+](=O)[O-])cc1)NC(=O)OC(C)(C)C (configuration not stated) (Boc-[ξPhe(4-NO2)]-Gly-NHEt)")
"T"
>>> assigned_label("OC1(C2(c3ccc(Cl)cc3)CCCC2)c2ccccc2C2=NCCN21 (configuration not stated)")
"F"
>>> assigned_label("Cc1nc2ccccc2c(/C=C/c2ccccc2)c1C(=O)/C=C/c1ccccc1")
"F"
>>> assigned_label("CCCCCCC/C=C1\\CCC(CN(C)C)C1=O (configuration not stated)")
"F"
>>> assigned_label("COc1cc(=O)oc(/C=C/C=C/C=C/C(C)=C\\C2(C)OC(C)C(C)(O)C2O)c1C (configuration not stated)")
"T"
>>> assigned_label("O=P(O)(O)CC1OC(CO)C(O)C1O (configuration not stated)")
"T"
>>> assigned_label("CCCCCN(CCCCC)C(=O)[C@H](CCC(=O)OCc1ccccc1)NC(=O)c1cc2ccccc2[nH]1")
"T"
>>> assigned_label("NS(=O)(=O)c1nnc(NC(=O)/C=C/C(=O)O)s1")
"T"
>>> assigned_label("CCCCCCC(O)C(O)CCC(O)C1CCC(CCCCC(O)CC2=CC(C)OC2=O)O1 (configuration not stated)")
"T"
>>> assigned_label("CCCCN1CCC(O)(c2cc(C(=O)O)[nH]c2-c2cc(C)no2)C1=O (configuration not stated)")
"T"
>>> assigned_label("COc1ncc(C#CC(=O)c2ccccc2)c(OC)n1")
"F"
>>> assigned_label("O=C(c1cccc2cc(O)ccc12)c1cn(CCN2CCOCC2)c2ccccc12")
"T"
>>> assigned_label("CCCCCCCCCCCCC(NC(C)=O)(C(=O)OCC)C(=O)OCC")
"F"
>>> assigned_label("CN(C)C1C(=O)C(C(N)=O)=C(O)C2(O)C(=O)C3=C(O)c4c(O)cccc4C(C)(O)C3CC12 (configuration not stated)")
"T"
>>> assigned_label("CN1CCN(c2ccc(-c3cccc(CN4CCOCC4)c3)cc2NC(=O)c2c[nH]c(=O)cc2C(F)(F)F)CC1")
"T"
>>> assigned_label("[N-]=[N+]=NC1C2CC3CC(C2)CC1C3 (configuration not stated)")
"T"
>>> assigned_label("CC(C)c1cc(C(=O)[O-])c(O)c(C(C)C)c1.CC(C)c1cc(C(=O)[O-])c(O)c(C(C)C)c1.CC(C)c1cc(C(=O)[O-])c(O)c(C(C)C)c1.CC(C)c1cc(C(=O)[O-])c(O)c(C(C)C)c1.CC(C)c1cc(C(=O)[O-])c(O)c(C(C)C)c1.CC(C)c1cc(C(=O)[O-])c(O)c(C(C)C)c1.[Cu+2].[Mn+2].[Mn+2]")
"T"
>>> assigned_label("CCCC(=O)Nc1c(I)cc(I)c(CC(CC)C(=O)O)c1I (configuration not stated)")
"T"
>>> assigned_label("O=C1c2cc([N+](=O)[O-])sc2C(=O)c2cc([N+](=O)[O-])sc21")
"F"
>>> assigned_label("Cc1ccc(N2C3=C(CC4=C2CC(C)(C)CC4=O)C(=O)CC(C)(C)C3)cc1")
"T"
>>> assigned_label("COc1ccc2c(c1)c(-c1ccc(-c3cn(C)c4ccc(OC)cc34)o1)cn2C")
"F"
>>> assigned_label("C=C1C(=O)O[C@H]2[C@H]1CC/C(Cn1cc(-c3ccsc3)nn1)=C\\CC[C@@]1(C)O[C@@H]21")
"F"
>>> assigned_label("c1ccc(N2N=C3N(c4ccccc4)C2N3c2ccccc2)cc1")
"T"
>>> assigned_label("COc1c(N2CCN(CN3C(=O)C(=O)c4ccccc43)C(C)C2)c(F)cc2c(=O)c(C(=O)O)cn(C3CC3)c12 (configuration not stated)")
"T"

---

# Tested on: SK-OV-3 ovarian
# Experiment summary: NCI tumour cell line growth inhibition, 48 h
Everything with TGI lower than 9 µM is class 0; everything else, including exactly 9 µM, is class 1.

>>> assigned_label("c1ccc(N2N=C3N(c4ccccc4)C2N3c2ccccc2)cc1")
"class 1"
>>> assigned_label("COC(=O)/C=C/c1cnc2c(c1)oc(=O)n2C")
"class 1"
>>> assigned_label("Cc1cc(C)c(O)c(CNCCCNCc2cc(C)cc(C)c2O)c1")
"class 1"
>>> assigned_label("N#Cc1ccc(NC(=O)Nc2nc3ccc(OC(F)(F)F)cc3s2)cc1")
"class 1"
>>> assigned_label("COc1ccc(-c2cc(-c3ccc(Cl)cc3)nc(SCCCCCCC(=O)NO)n2)cc1")
"class 0"
>>> assigned_label("C=CC(C)(C)n1cc(C2=C(O)C(=O)C(c3c(CC=C(C)C)[nH]c4ccccc34)=C(O)C2=O)c2ccccc21")
"class 0"
>>> assigned_label("CS(=O)(=O)CCC(N)P(=O)(O)O (stereo unspecified)")
"class 1"
>>> assigned_label("Cn1cc2ccccc2c1-c1nc(F)nc(Nc2ccc(N)cc2)n1")
"class 1"
>>> assigned_label("Cc1nn(C(=O)c2ccncc2)c2c1C(c1ccc([N+](=O)[O-])cc1)SC(N)=N2 (stereo unspecified)")
"class 1"
>>> assigned_label("COc1ccc(-c2c3c(nc4[nH]c(=S)[nH]c(=S)c24)CCCC3)cc1OC")
"class 1"
>>> assigned_label("C=C(C)[C@@H]1CC[C@]2(CN)CC[C@]3(C)[C@H](CC[C@@H]4[C@@]5(C)CCC(N)[C@@](C)(CO)[C@@H]5CC[C@]43C)[C@@H]12 (stereo partly specified)")
"class 0"

---

# Tested on: SW-620 colon
# Experiment summary: NCI tumour cell line growth inhibition, 48 h
# TGI per entry
Readout label: TGI

>>> endpoint_result("C[C@H](C(O)CC(=O)C(C)(C)O)[C@H]1CC[C@@]2(C)[C@@H]3CC[C@H]4C(C)(C)[C@@H](OC5OC(COC6OC(CO)C(O)C(O)C6O)C(O)C(O)C5O)CC[C@]4(C)C3=CC[C@]12C (stereo partly specified)")
"> 100 µM"
>>> endpoint_result("COC(=O)C1(Cc2ccc(C)cc2)Cc2c(C)cccc2C1=O (stereo unspecified)")
"> 100 µM"
>>> endpoint_result("COc1cc2c(cc1OC)-c1ncc3cc(OC)c(OC)c(OC)c3c1C2")
"> 100 µM"
>>> endpoint_result("C[C@@]1(O)CCC[C@H]1n1c(=O)c(C(F)F)cc2cnc(NC3CCN(S(C)(=O)=O)CC3)nc21")
"6.46 µM"
>>> endpoint_result("CN1CCN(c2ccc(-c3cccc(CN4CCOCC4)c3)cc2NC(=O)c2c[nH]c(=O)cc2C(F)(F)F)CC1")
"> 100 µM"
>>> endpoint_result("Nc1nc(Cc2ccccc2)nc(Cc2ccccc2)c1-c1ccccc1")
"> 100 µM"
>>> endpoint_result("COc1cc(=O)oc(/C=C/C=C/C=C/C(C)=C\\C2(C)OC(C)C(C)(O)C2O)c1C (stereo unspecified)")
"> 100 µM"
>>> endpoint_result("COc1cc(OC)cc(C(=O)Cc2c(C(=O)c3ccccc3)c3ccccc3n2C(=O)c2ccccc2)c1")
"> 100 µM"
>>> endpoint_result("COc1cc(OC2OC(CO)C(O)C(O)C2O)c2c(c1)O[C@@H]1[C@H](O)Oc3cc(OC)c(OC)cc3[C@]1(O)C2=O (stereo partly specified)")
"> 25 µM"
>>> endpoint_result("C/C(=N\\NS(=O)(=O)c1c(C)cc(C)cc1C)c1ccc[n+]([O-])n1")
"22.3 µM"
>>> endpoint_result("N#CC(C(=O)O)C(c1c(Cl)cccc1Cl)C(C#N)C(=O)O (stereo unspecified)")
"> 100 µM"

---

Readings of TGI for the listed compounds
# Tested on: IGROV1 ovarian
# Experiment summary: NCI tumour cell line growth inhibition, 48 h
Readout label: TGI (µM)

>>> endpoint_result("COc1ccc(-c2cc(-c3ccc(Cl)cc3)nc(SCCCCCCC(=O)NO)n2)cc1")
12.5
>>> endpoint_result("Cc1ccc2c(c1)-c1oc(=O)c(-c3cc4ccccc4oc3=O)cc1C(O)O2 (stereo not given)")
52.1
>>> endpoint_result("CCCCCC(=C/c1ccccc1)/C=N/N=C(N)N")
2.72
>>> endpoint_result("C[C@@H]1OC(=O)NN=C1c1ccc(-c2ccc(F)cc2)c(C(F)(F)F)c1")
29.9
>>> endpoint_result("Fc1cc2nc3n(c2cc1F)C(c1c(Cl)cccc1Cl)SC3 (stereo not given)")
34
>>> endpoint_result("CC1OC(OC2C[C@](O)(C(=O)CBr)Cc3c(O)c4c(c(O)c32)C(=O)c2ccccc2C4=O)C(F)C(O)C1O (stereo not given in full)")
60.9
>>> endpoint_result("CCCCCCCCCCCCC(NC(C)=O)(C(=O)OCC)C(=O)OCC")
37.2
>>> endpoint_result("Clc1nc(-c2ccccc2)nc(Cl)c1Cl")
21.6
>>> endpoint_result("CC(C)=CCC/C(C)=C/CC/C(C)=C/C1CCC(=O)C1(C)C (stereo not given)")
39.4

Just for reference, PubChem BioAssay (NCI) is where these values come from.
